- System Name: A disintegrin and metalloproteinase with thrombospondin motifs 5 (Homo sapiens, UniProt Q9UNA0)
- Sequence (Q9UNA0 whole entry): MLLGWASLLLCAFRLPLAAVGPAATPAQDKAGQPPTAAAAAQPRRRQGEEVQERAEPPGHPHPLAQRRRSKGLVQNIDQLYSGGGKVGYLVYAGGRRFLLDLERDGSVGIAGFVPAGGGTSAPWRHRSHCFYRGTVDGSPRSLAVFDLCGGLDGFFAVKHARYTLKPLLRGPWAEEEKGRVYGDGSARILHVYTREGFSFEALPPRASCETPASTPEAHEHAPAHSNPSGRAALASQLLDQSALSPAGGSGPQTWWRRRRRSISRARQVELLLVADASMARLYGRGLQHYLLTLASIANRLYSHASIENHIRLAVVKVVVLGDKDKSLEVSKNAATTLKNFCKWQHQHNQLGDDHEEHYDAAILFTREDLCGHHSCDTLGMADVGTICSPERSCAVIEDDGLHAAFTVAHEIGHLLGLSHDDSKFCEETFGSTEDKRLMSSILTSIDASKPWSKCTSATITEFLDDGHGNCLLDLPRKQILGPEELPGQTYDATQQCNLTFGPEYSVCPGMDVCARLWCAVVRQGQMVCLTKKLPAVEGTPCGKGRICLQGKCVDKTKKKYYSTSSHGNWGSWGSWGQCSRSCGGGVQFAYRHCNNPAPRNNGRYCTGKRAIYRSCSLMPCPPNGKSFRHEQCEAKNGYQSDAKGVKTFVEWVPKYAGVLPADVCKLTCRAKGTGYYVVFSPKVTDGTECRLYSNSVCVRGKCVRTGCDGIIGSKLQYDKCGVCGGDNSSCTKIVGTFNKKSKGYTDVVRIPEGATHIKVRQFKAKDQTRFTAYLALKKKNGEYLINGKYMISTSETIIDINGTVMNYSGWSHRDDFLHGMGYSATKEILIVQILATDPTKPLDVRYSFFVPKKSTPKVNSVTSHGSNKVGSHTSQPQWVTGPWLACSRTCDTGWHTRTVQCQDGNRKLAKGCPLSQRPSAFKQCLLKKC
- Experiment: Inhibition of human recombinant aggrecanase 2 after 150 mins by fluorescence plate reader
pIC50: −log10 of the molar value.
Reported Property: pIC50

# Compound, Reported Property, Measurement
records = [
    ("C[C@@H]1[C@](C)(c2ccccc2)[C@]1(NS(=O)(=O)N1CCn2c(nc3cc(F)ccc32)C1)C(=O)O", "pIC50", 7.85),
    ("O=C(NO)c1nc2ccccc2c2c1CN(c1ccc(OCc3ccccc3)cc1)C2=O", "pIC50", 6.02),
    ("C[C@@H]1[C@H](c2ccccc2)[C@]1(NS(=O)(=O)N1CCc2c([nH]c3cc(F)ccc23)C1)C(=O)O", "pIC50", 7.42),
    ("C[C@@H]1[C@H](c2ccccc2)[C@]1(NS(=O)(=O)N1CCn2c(nc3ccc(F)cc32)C1)C(=O)O", "pIC50", 7.00),
    ("C[C@@H]1[C@H](c2ccccc2)[C@]1(NS(=O)(=O)N1CCN(c2ccc(Cl)cc2)[C@@H](C)C1)C(=O)O", "pIC50", 7.33),
    ("C[C@@H]1CN(S(=O)(=O)N[C@@]2(C(=O)O)[C@H](C)[C@@H]2c2ccccc2)CCN1c1cc(C(F)F)on1", "pIC50", 7.57),
    ("CCC1CN(S(=O)(=O)N[C@@]2(C(=O)O)[C@H](C)[C@@H]2c2ccccc2)CCN1c1ccc(Cl)cc1 (mixture of isomers)", "pIC50", 6.39),
    ("CC(C)(NC(=O)[C@H](CCC(=O)O)NC(=O)c1ccc(-c2ccccc2)cc1)c1ccccc1", "pIC50", 5.96),
    ("C[C@@H]1[C@H](c2ccccc2)[C@]1(NS(=O)(=O)N1CCc2c(nc3cc(F)ccn23)C1)C(=O)O", "pIC50", 7.77),
    ("Cc1cnn(-c2ccc(S(=O)(=O)N[C@@]3(C(=O)O)[C@H](C)[C@@H]3c3ccccc3)s2)c1", "pIC50", 7.72),
    ("C[C@@H]1[C@H](c2ccccc2)[C@]1(NS(=O)(=O)c1cc2nn3cc(Cl)ccc3c2s1)C(=O)O", "pIC50", 7.54),
    ("O=C(NO)[C@@H](NCC1CC1)[C@@H](Cc1cccc(O)c1)C(=O)N[C@H]1c2ccccc2C[C@H]1O", "pIC50", 7.92),
    ("C[C@@H]1[C@H](c2ccccc2)[C@]1(NS(=O)(=O)N1CCn2c(cc3cc(Cl)sc32)C1)C(=O)O", "pIC50", 6.96),
    ("C[C@@H]1[C@H](c2ccccc2)[C@]1(NS(=O)(=O)N1CC=C(c2ccc(Cl)cc2)CC1)C(=O)O", "pIC50", 7.21),
    ("C[C@@H]1[C@H](c2ccccc2)[C@]1(NS(=O)(=O)N1CCn2c(nc3cc(C#N)ccc32)C1)C(=O)O", "pIC50", 6.60),
    ("C[C@@H]1[C@H](c2ccccc2)[C@]1(NS(=O)(=O)N1CCn2c(nc3ccccc32)C1)C(=O)O", "pIC50", 7.04),
]

====

- System Name: A disintegrin and metalloproteinase with thrombospondin motifs 4 (Homo sapiens, UniProt O75173)
- Sequence (O75173 whole entry): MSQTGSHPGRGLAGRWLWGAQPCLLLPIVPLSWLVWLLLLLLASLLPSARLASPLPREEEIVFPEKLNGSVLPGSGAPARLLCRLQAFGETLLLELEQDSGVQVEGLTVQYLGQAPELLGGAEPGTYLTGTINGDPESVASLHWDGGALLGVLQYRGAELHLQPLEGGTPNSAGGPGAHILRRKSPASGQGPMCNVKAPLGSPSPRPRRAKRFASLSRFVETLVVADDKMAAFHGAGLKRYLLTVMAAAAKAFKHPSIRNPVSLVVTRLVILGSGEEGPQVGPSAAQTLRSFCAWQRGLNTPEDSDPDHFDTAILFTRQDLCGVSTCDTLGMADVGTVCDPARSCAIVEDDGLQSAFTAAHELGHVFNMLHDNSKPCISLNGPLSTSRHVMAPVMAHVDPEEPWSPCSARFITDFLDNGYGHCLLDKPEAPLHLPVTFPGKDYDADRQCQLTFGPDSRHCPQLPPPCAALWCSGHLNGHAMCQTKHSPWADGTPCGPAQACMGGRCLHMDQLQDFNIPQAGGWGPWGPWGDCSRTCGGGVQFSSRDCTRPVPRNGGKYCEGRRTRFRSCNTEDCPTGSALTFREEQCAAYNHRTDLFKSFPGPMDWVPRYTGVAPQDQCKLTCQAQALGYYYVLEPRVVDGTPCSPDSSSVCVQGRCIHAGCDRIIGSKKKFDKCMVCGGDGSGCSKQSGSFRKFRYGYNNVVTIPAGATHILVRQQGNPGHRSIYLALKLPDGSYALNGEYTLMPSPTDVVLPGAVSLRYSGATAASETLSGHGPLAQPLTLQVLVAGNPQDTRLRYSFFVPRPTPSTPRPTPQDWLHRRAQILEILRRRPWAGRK
- Experiment: Inhibition of human recombinant aggrecanase 1 after 150 mins by fluorescence plate reader
Reported Property: IC50 (nM)

# Smiles Code, Measurement
measured = [
    ("CC(C)(NC(=O)[C@H](CCC(=O)O)NC(=O)c1ccc(-c2ccccc2)cc1)c1ccccc1", 210),
    ("O=C(NO)c1nc2ccccc2c2c1CN(c1ccc(OCc3ccccc3)cc1)C2=O", 210),
    ("C[C@@H]1[C@H](c2ccccc2)[C@]1(NS(=O)(=O)c1ccc(-n2cc(Cl)cn2)s1)C(=O)O", 4),
    ("C[C@@H]1[C@](C)(c2ccccc2)[C@]1(NS(=O)(=O)N1CCc2c(nc3cc(F)ccn23)C1)C(=O)O", 23),
    ("CC1(C)C[C@@H](O)CN(S(=O)(=O)c2ccc(OCc3ccc(Cl)cc3Cl)cc2)[C@H]1C(=O)NO", 1.1),
    ("O=C(NO)[C@@H](NCC1CC1)[C@@H](Cc1cccc(O)c1)C(=O)N[C@H]1c2ccccc2C[C@H]1O", 3),
]

====

- System Name: Collagenase 3 (Homo sapiens)
- Experiment: Inhibition of human recombinant MMP13 after 60 mins by fluorescence plate reader
pIC50: −log10 of the molar value.
Reported Property: pIC50

# Smiles Code, Reported Property, Result Comparator, Measurement
records = [
    ("C[C@@H]1[C@H](c2ccccc2)[C@]1(NS(=O)(=O)c1ccc(-n2cc(Cl)cn2)s1)C(=O)O", "pIC50", "=", 8.47),
    ("C[C@@H]1[C@](C)(c2ccccc2)[C@]1(NS(=O)(=O)N1CCc2c(nc3cc(F)ccn23)C1)C(=O)O", "pIC50", "<", 5.00),
]

====

- System Name: Stromelysin-1 (Homo sapiens, UniProt P08254)
- Sequence (P08254 whole entry): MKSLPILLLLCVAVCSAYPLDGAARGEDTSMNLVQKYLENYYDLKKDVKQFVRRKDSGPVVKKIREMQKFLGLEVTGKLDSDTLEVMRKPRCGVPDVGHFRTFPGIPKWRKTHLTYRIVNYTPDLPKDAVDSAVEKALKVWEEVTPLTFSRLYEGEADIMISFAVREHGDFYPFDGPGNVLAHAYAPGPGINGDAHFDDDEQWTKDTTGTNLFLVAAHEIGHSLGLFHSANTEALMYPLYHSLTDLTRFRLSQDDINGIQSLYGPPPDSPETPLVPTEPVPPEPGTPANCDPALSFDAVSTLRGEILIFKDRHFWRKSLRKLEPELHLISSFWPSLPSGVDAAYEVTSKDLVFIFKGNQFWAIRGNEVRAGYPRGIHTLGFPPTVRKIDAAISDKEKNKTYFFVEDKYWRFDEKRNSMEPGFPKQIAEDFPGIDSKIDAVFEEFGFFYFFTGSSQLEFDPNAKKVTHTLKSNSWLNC
- Experiment: Inhibition of human recombinant MMP3 after 60 mins by fluorescence plate reader
Examples of molecules with documented IC50 follow.
Reported Property: IC50 (µM)

# Smiles Code, Reported Property, Measurement
rows = [
    ("C[C@@H]1[C@H](c2ccccc2)[C@]1(NS(=O)(=O)c1ccc(-n2cc(Cl)cn2)s1)C(=O)O", "IC50", 0.068),
    ("C[C@@H]1[C@](C)(c2ccccc2)[C@]1(NS(=O)(=O)N1CCc2c(nc3cc(F)ccn23)C1)C(=O)O", "IC50", 9.6),
]

====

This section presents compounds with their documented bioavailability values.
- Experiment: Oral bioavailability in Sprague-Dawley rat at 10 mg/kg
- Assay type: ADME, organism-based
- Protocol Conditions: Sprague-Dawley, in vivo

# Smiles Code, bioavailability [%]
data = [
    ("C[C@@H]1[C@](C)(c2ccccc2)[C@]1(NS(=O)(=O)N1CCc2c(nc3cc(F)ccn23)C1)C(=O)O", 103),
    ("C[C@@H]1CN(S(=O)(=O)N[C@@]2(C(=O)O)[C@H](C)[C@]2(C)c2ccccc2)CCN1c1ccc(C#N)s1", 119),
    ("C[C@@H]1CN(S(=O)(=O)N[C@@]2(C(=O)O)[C@H](C)[C@]2(C)c2ccccc2)CCN1c1cc(C(F)F)on1", 64),
]

====

- System Name: UniProtKB P50281
- Experiment: Inhibition of human recombinant MMP14 after 60 mins by fluorescence plate reader

# Compound, System Name, Measure Unit, Result Comparator, IC50
data = [
    ("C[C@@H]1CN(S(=O)(=O)N[C@@]2(C(=O)O)[C@H](C)[C@@H]2c2ccccc2)CCN1c1ccc(C2CC2)cc1", "UniProtKB P50281", "µM", "=", 1.4),
    ("C[C@@H]1[C@H](c2ccccc2)[C@]1(NS(=O)(=O)c1cc2[nH]c3cc(F)ccc3c2s1)C(=O)O", "UniProtKB P50281", "µM", "=", 0.008),
    ("C[C@@H]1[C@](C)(c2ccccc2)[C@]1(NS(=O)(=O)N1CCc2c(nn3cc(F)ccc23)C1)C(=O)O", "UniProtKB P50281", "µM", "=", 2.1),
    ("C[C@@H]1[C@H](c2ccccc2)[C@]1(NS(=O)(=O)N1CCn2c(nc3ccc(F)cc32)C1)C(=O)O", "UniProtKB P50281", "µM", "=", 0.24),
    ("C[C@@H]1CN(S(=O)(=O)N[C@@]2(C(=O)O)[C@H](C)[C@]2(C)c2ccccc2)CCN1c1ccc(C#N)s1", "UniProtKB P50281", "µM", ">", 10),
    ("C[C@@H]1[C@H](c2ccccc2)[C@]1(NS(=O)(=O)N1CCc2c(nc3cc(Cl)ccn23)C1)C(=O)O", "UniProtKB P50281", "µM", "=", 0.27),
    ("C[C@@H]1[C@H](c2ccccc2)[C@]1(NS(=O)(=O)N1CCN(c2ccc(Cl)cc2)[C@@H](C)C1)C(=O)O", "UniProtKB P50281", "µM", "=", 2.5),
    ("C[C@@H]1[C@H](c2ccccc2)[C@]1(NS(=O)(=O)N1CCc2c([nH]c3cc(F)ccc23)C1)C(=O)O", "UniProtKB P50281", "µM", "=", 0.098),
    ("C[C@@H]1[C@H](c2ccccc2)[C@]1(NS(=O)(=O)N1CCn2c(nc3ccccc32)C1)C(=O)O", "UniProtKB P50281", "µM", "=", 2.2),
    ("C[C@@H]1[C@H](c2ccccc2)[C@]1(NS(=O)(=O)N1CCn2c(cc3cc(Cl)sc32)C1)C(=O)O", "UniProtKB P50281", "µM", "=", 2.3),
    ("C[C@@H]1[C@H](c2ccccc2)[C@]1(NS(=O)(=O)c1cc2[nH]c3ccc(F)cc3c2s1)C(=O)O", "UniProtKB P50281", "µM", "=", 0.025),
    ("C[C@@H]1CN(S(=O)(=O)N[C@@]2(C(=O)O)[C@H](C)[C@@H]2c2ccccc2)CCN1c1ccc(Cl)cc1", "UniProtKB P50281", "µM", "=", 2.1),
    ("C[C@@H]1[C@H](c2ccccc2)[C@]1(NS(=O)(=O)N1CCn2c(nc3cc(C#N)ccc32)C1)C(=O)O", "UniProtKB P50281", "µM", "=", 4.9),
    ("COCc1cc(N2CCN(S(=O)(=O)N[C@@]3(C(=O)O)[C@H](C)[C@@H]3c3ccccc3)C[C@H]2C)no1", "UniProtKB P50281", "µM", "=", 1.4),
    ("C[C@@H]1[C@H](c2ccccc2)[C@]1(NS(=O)(=O)N1CCN(c2ccc(Cl)cc2)C(C)(C)C1)C(=O)O", "UniProtKB P50281", "µM", "=", 2.9),
    ("C[C@@H]1[C@H](c2ccccc2)[C@]1(NS(=O)(=O)c1cc2nc3cc(Cl)ccn3c2s1)C(=O)O", "UniProtKB P50281", "µM", "=", 0.1),
    ("C[C@@H]1[C@H](c2ccccc2)[C@]1(NS(=O)(=O)N1CCn2c(cc3cc(Cl)ccc32)C1)C(=O)O", "UniProtKB P50281", "µM", "=", 0.42),
    ("COc1cnn(-c2ccc(S(=O)(=O)N[C@@]3(C(=O)O)[C@H](C)[C@@H]3c3ccccc3)s2)c1", "UniProtKB P50281", "µM", "=", 0.0013),
    ("CCC1CN(S(=O)(=O)N[C@@]2(C(=O)O)[C@H](C)[C@@H]2c2ccccc2)CCN1c1ccc(Cl)cc1 (mixture of isomers)", "UniProtKB P50281", "µM", ">", 10),
    ("Cc1cnn(-c2ccc(S(=O)(=O)N[C@@]3(C(=O)O)[C@H](C)[C@@H]3c3ccccc3)s2)c1", "UniProtKB P50281", "µM", "=", 0.0012),
    ("C[C@@H]1CN(S(=O)(=O)N[C@@]2(C(=O)O)[C@H](C)[C@]2(C)c2ccccc2)CCN1c1cc(C(F)F)on1", "UniProtKB P50281", "µM", ">", 10),
    ("C[C@@H]1[C@H](c2ccccc2)[C@]1(NS(=O)(=O)c1cc2nn3cc(Cl)ccc3c2s1)C(=O)O", "UniProtKB P50281", "µM", "=", 0.1),
    ("C[C@@H]1[C@](C)(c2ccccc2)[C@]1(NS(=O)(=O)N1CCn2c(nc3cc(F)ccc32)C1)C(=O)O", "UniProtKB P50281", "µM", ">", 10),
    ("C[C@@H]1[C@H](c2ccccc2)[C@]1(NS(=O)(=O)c1ccc(-n2cc(Cl)cn2)s1)C(=O)O", "UniProtKB P50281", "µM", "=", 0.0039),
    ("C[C@@H]1[C@H](c2ccccc2)[C@]1(NS(=O)(=O)N1Cc2nc3cc(Cl)ccn3c2C1)C(=O)O", "UniProtKB P50281", "µM", "=", 0.28),
    ("C[C@@H]1CN(S(=O)(=O)N[C@@]2(C(=O)O)[C@H](C)[C@@H]2c2ccccc2)CCN1c1cc(C(F)F)on1", "UniProtKB P50281", "µM", "=", 5.4),
    ("C[C@@H]1[C@H](c2ccccc2)[C@]1(NS(=O)(=O)N1CC=C(c2ccc(Cl)cc2)CC1)C(=O)O", "UniProtKB P50281", "µM", "=", 0.3),
    ("C[C@@H]1CN(S(=O)(=O)N[C@@]2(C(=O)O)[C@H](C)[C@@H]2c2ccccc2)CCN1c1cc(C(C)(F)F)on1", "UniProtKB P50281", "µM", "=", 1.1),
    ("C[C@@H]1[C@H](c2ccccc2)[C@]1(NS(=O)(=O)N1CCn2c(nc3cc(F)ccc32)C1)C(=O)O", "UniProtKB P50281", "µM", "=", 1.1),
    ("O=C(NO)[C@@H](NCC1CC1)[C@@H](Cc1cccc(O)c1)C(=O)N[C@H]1c2ccccc2C[C@H]1O", "UniProtKB P50281", "µM", ">", 10),
    ("C[C@@H]1[C@H](c2ccccc2)[C@]1(NS(=O)(=O)N1CCN(c2ccc(Cl)cc2)CC1)C(=O)O", "UniProtKB P50281", "µM", "=", 0.45),
]

These entries and their values trace back to ChEMBL document CHEMBL1765003.
